All values here come from ChEMBL document CHEMBL1125400.

# System: Staphylococcus aureus
# experiment.description: In vitro antibacterial activity against Staphylococcus aureus (A9537)
# Format: functional
MIC under 0.5 µg/mL gets Condition met, anything at or over 0.5 µg/mL gets Condition not met.

# test.smiles, label.class
rows = [
    ("C[C@@H](N)[C@H]1C(=O)N2C(C(=O)O)=C(SCc3cccnc3)[C@H](C)[C@H]12", "Condition not met"),
    ("C[C@H]1C(SCc2cccnc2)=C(C(=O)O)N2C(=O)[C@H](CO)[C@@H]12", "Condition met"),
    ("C[C@H]1C(SCc2ccccn2)=C(C(=O)O)N2C(=O)[C@H](/C=C/CO)[C@@H]12", "Condition not met"),
    ("C[C@@H](O)[C@H]1C(=O)N2C(C(=O)O)=C(SCc3cccnc3)[C@H](C)[C@H]12", "Condition met"),
    ("C[C@H]1C(SCc2ccccn2)=C(C(=O)O)N2C(=O)[C@H](/C=C/CN=[N+]=[N-])[C@@H]12", "Condition met"),
    ("C[C@H]1C(SCc2ccccn2)=C(C(=O)O)N2C(=O)[C@H](/C=C/CNc3ccccc3)[C@@H]12", "Condition met"),
]
